- system-name: TRPML1 (Homo sapiens, UniProt Q9GZU1)
- Construct: expressed in transfected cells; host or cells: HEK T-REx cells stably expressing GCaMP6f and TRPML1
- Sequence (Q9GZU1 whole entry): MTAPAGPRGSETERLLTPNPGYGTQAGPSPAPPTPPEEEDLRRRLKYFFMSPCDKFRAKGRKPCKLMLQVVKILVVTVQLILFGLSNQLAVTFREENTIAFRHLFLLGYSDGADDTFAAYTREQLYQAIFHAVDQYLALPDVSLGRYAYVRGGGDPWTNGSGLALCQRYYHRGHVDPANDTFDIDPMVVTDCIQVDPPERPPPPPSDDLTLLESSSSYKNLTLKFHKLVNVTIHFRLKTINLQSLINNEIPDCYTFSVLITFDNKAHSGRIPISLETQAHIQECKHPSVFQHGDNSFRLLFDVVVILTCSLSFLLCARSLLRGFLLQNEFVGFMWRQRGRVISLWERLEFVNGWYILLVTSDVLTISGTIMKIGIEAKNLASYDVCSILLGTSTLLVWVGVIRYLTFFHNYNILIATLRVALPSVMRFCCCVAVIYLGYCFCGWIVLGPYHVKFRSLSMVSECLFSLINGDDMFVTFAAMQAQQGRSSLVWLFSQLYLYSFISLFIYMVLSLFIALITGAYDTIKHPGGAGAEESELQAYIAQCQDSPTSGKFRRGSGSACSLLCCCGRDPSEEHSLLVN
- protocol-details: Cellular TRPML1 assay (FLIPR, GCaMP6f calcium read-out)
- Format: cell-based
- assay-context: HEKT-REx/GCaMP6f/TRPML1 cells, FLIPR TETRA, kinetic response over 300 seconds; read-out: TRPML1 FLIPR pEC50 (converted)
We begin with a simple list: items and their reported EC50.

Known results for compounds:
O=C(Nc1ccc(OC2CCCC2(F)F)c(F)c1)c1nc(N2CCC3(CCC3)C2)oc1CC(F)(F)F (centres unmarked); 0.01 to 1 µM
CC1(C)CN(c2nc(C(=O)Nc3cc(F)c(O[C@@H]4C[C@@H]5C[C@@H]5C4)c(F)c3)c(CC(F)(F)F)o2)CCO1; 1 to 10 µM
CCc1oc(N2CC(CC)(CC)C2)nc1C(=O)Nc1cc(F)c(OC2CCCOC2)c(F)c1 (centres unmarked); 0.01 to 1 µM
O=C(Nc1ccc(OC2CCCC2(F)F)c(F)c1)c1nc(N2CCC3(COC3)C2)oc1CC(F)(F)F (centres unmarked); 0.01 to 1 µM

[ask] Report EC50 for O=C(Nc1ccc(OC2COCC2(F)F)c(F)c1)c1nc(N2CCC3(CC3)C2)oc1CC(F)(F)F (centres unmarked) please.
[reply] 1 to 10 µM

====

Measured EC50, listed per entry.
- system-name: TRPML1 (Homo sapiens, UniProt Q9GZU1)
- Construct: expressed in transfected cells; host or cells: HEK T-REx cells stably expressing GCaMP6f and TRPML1
- protocol-details: Cellular TRPML1 assay (FLIPR, GCaMP6f calcium read-out)
- Format: cell-based
- assay-context: HEKT-REx/GCaMP6f/TRPML1 cells, FLIPR TETRA, kinetic response over 300 seconds; read-out: TRPML1 FLIPR pEC50 (converted)

Reference set (5 entries):
O=C(Nc1ccc(O[C@@H]2C[C@@H]3C[C@@H]3C2)c(F)c1)c1nc(N2CCC3(CC3)C2)oc1CC(F)(F)F; 10 to 1000 nM
Cc1cc(NC(=O)c2nc(N3CC(C)(CO)C3)oc2CC(F)(F)F)cc(F)c1O[C@@H]1C[C@@H]2C[C@@H]2C1; 10 to 1000 nM
CC1(C)CN(c2nc(C(=O)Nc3ccc(OC4CCCC4(F)F)c(F)c3)c(CC(F)(F)F)o2)CCO1 (stereo not shown); 1000 to 10000 nM
Cc1cc(NC(=O)c2nc(N3CC(C)(CO)C3)oc2CC(F)(F)F)cc(F)c1OC1CC2CC(C2)C1 (stereo not shown); 10 to 1000 nM
O=C(Nc1ccc(O[C@@H]2C[C@@H]3C[C@@H]3C2)c(F)c1)c1nc(N2CC3CC3C2)oc1CC(F)(F)F (stereo partly shown); 10 to 1000 nM

[ask] // map CCC1(CC)CN(c2nc(C(=O)Nc3cc(F)c(OC4CCC5CC54)c(F)c3)c(CC(F)(F)F)o2)C1 (stereo not shown) to recorded EC50 (system: TRPML1 (Homo sapiens, UniProt Q9GZU1))
[reply] 10 to 1000 nM

[ask] Same thing, different compound: CC1(C)CC(Oc2ccc(NC(=O)c3nc(N4CCCC4)oc3CC(F)(F)F)cc2F)CO1 (stereo not shown)
[reply] 1000 to 10000 nM

====

Reported EC50 values for a set of compounds
- system-name: TRPML1 (Homo sapiens, UniProt Q9GZU1)
- Construct: expressed in transfected cells; host or cells: HEK T-REx cells stably expressing GCaMP6f and TRPML1
- protocol-details: Cellular TRPML1 assay (FLIPR, GCaMP6f calcium read-out)
- Type: cell-based
- assay-context: HEKT-REx/GCaMP6f/TRPML1 cells, FLIPR TETRA, kinetic response over 300 seconds; read-out: TRPML1 FLIPR pEC50 (converted)
- Experimental: Example A: Cellular TRPML1 Assay The final clone for the TRPML1 assay is HEKT-REx/GCaMP6f/TRPML1. GCaMP6f is a genetically encoded calcium indicator that is stably expressed in this cell line and used as a fluorescent read-out. Experiments were performed in 384 MTP format. […] Twenty-four hours later, cells are assayed for the response to various compounds using the Ca^2+ sensitive GCaMP6f protein stably expressed in the cells as readout. […]

Example cases with answers are listed next.
O=C(Nc1cc(F)c(CN2CC3CC3C2)c(F)c1)c1nc(N2CCCC2)oc1CC(F)(F)F (stereo not shown); 10000 to 100000 nM
COC1(C)CN(c2nc(C(=O)Nc3ccc(OC4CC5CCC(C4)O5)c(F)c3)c(CC(F)(F)F)o2)C1 (stereo not shown); 1000 to 10000 nM

[ask] Which value of EC50 has been reported for O=C(Nc1cc(F)c(OC2CC3C[C@H]3C2)c(F)c1)c1nc(N2CCC3(COC3)C2)oc1CC(F)(F)F (stereo partly shown) in the records?
[reply] 10 to 1000 nM

[ask] Try this compound too: O=C(Nc1ccc(OCC2CC3CC3C2)c(F)c1)c1nc(N2CCCC2)oc1CC(F)(F)F (stereo not shown)
[reply] 1000 to 10000 nM

[ask] Let us now turn to O=C(Nc1cc(F)c(O[C@@H]2C[C@@H]3C[C@@H]3C2)c(F)c1)c1nc(N2CC3(CCOCC3)C2)oc1CC(F)(F)F
[reply] 10 to 1000 nM

[ask] Another compound to look at: CC1(C)CN(c2nc(C(=O)Nc3cc(F)c(OC4COCC4(F)F)c(F)c3)c(CC(F)(F)F)o2)C1 (stereo not shown)
[reply] 10 to 1000 nM

[ask] Similarly, CCC1(CC)CN(c2nc(C(=O)Nc3cc(F)c(O[C@@H]4C[C@@H]5C[C@@H]5C4)c(F)c3)c(CN3CCCC3)o2)C1 ?
[reply] 10 to 1000 nM
